Exercise: state measured melting point for each of the compounds provided.

Note melting point for the compound shown: `O=C1CC(=O)CC2(CCOCC2)C1` 162 to 164 °C

Note melting point for the compound shown: `CC(=O)Nc1ccc(C2=NNC(=O)CC2)cc1[N+](=O)[O-]` 223 °C

Note melting point for the compound shown: CCOC(=O)c1cccc(-c2ccc3c(c2)C(O)CCC3)c1 (stereo not given) 88 to 100 °C

Note melting point for the compound shown: `Cc1nnsc1C(=O)Nc1ccc(-n2nc(C(F)(F)F)cc2C(F)(F)F)c(C(F)(F)F)c1` 134 to 136 °C

Note melting point for the compound shown: `CC(=O)Nc1ccc2c(c1)N1CCCN=C1S2` 178 °C

Note melting point for the compound shown: `O=Cc1cccc2c1CN(c1ccccc1)C2` 120 to 122 °C

Note melting point for the compound shown: `CCOC(=O)c1c(N2CCN(C(=O)c3cccs3)CC2)c2cccnc2[nH]c1=O` 239 °C

Note melting point for the compound shown: COCC(OC(C)=O)C1CC(O)C2(C)CCC3C(CCC4=CC(=O)C=C(C)C43C)C12 (stereo not given) 203 to 204 °C

Note melting point for the compound shown: CC1(C)COc2ccc(C[C@H]3NC(=O)O[C@H]3c3cccc(Cl)c3)cc21 (racemic) 183 to 184 °C

Note melting point for the compound shown: O=C1NC(C(Cl)(Cl)Cl)Nc2ccc([N+](=O)[O-])cc21 (stereo not given) 278 to 280 °C

Note melting point for the compound shown: `Nc1ccc(Sc2ccccn2)cn1` 121 °C

Note melting point for the compound shown: `COC(=O)CCc1ccc(N(c2ccc(-c3ccc(N(c4ccc(CCC(=O)OC)cc4)c4cccc5ccccc45)cc3)cc2)c2cccc3ccccc23)cc1` 117 to 120 °C

Note melting point for the compound shown: `O=C(Cc1ccccc1Nc1c(Cl)cccc1Cl)OCc1ccncc1` 121 to 123 °C

Note melting point for the compound shown: `COc1ccc(-c2[nH]nc3c2C(=O)c2c(NC(=O)NNC(=O)c4ccc(O)c(O)c4)cccc2-3)cc1` > 300 °C

Note melting point for the compound shown: CCC(=O)CC(=O)c1ccc(C2CCC(CC)CC2)cc1 (stereo not given) 78 °C
